- Tested on: HL-60
- method: Cytotoxicity against human HL60 cells after 48 hrs by SRB assay
- Assay type: functional, cell-based
- conditionContext: HL-60, 48 h
The reader will find reported pIC50 values listed item by item below.
// returns pIC50 (minus log10 of molar concentration), number only

Need pIC50 of C=C(C)[C@@H]1CC[C@]2(C(=O)O)CC[C@]3(C)[C@H](CC[C@@H]4[C@@]5(C)CC[C@H](OCc6cn(-c7ccc([N+](=O)[O-])cc7)nn6)C(C)(C)[C@@H]5CC[C@]43C)[C@@H]12 , thanks.
5.35

Need pIC50 of C=C(C)[C@@H]1CC[C@]2(C(=O)O)CC[C@]3(C)[C@H](CC[C@@H]4[C@@]5(C)CC[C@H](OCc6cn(-c7cccc(OC)c7)nn6)C(C)(C)[C@@H]5CC[C@]43C)[C@@H]12 , thanks.
4.43

Need pIC50 of C=C(C)[C@@H]1CC[C@]2(C(=O)O)CC[C@]3(C)[C@H](CC[C@@H]4[C@@]5(C)CC[C@H](OCc6cn(-c7ccc(Cl)cc7)nn6)C(C)(C)[C@@H]5CC[C@]43C)[C@@H]12 , thanks.
5.26

====

- Tested on: HCT-15
- method: Cytotoxicity against human HCT15 cells at 10 uM after 48 hrs by SRB assay
- Assay type: functional
- conditionContext: HCT-15, 48 h, read-out: GI
The reader will find reported inhibition of growth at 10 µM values listed item by item below.
Give just the number in %; leave the unit off.

C=C(C)[C@@H]1CC[C@]2(C(=O)O)CC[C@]3(C)[C@H](CC[C@@H]4[C@@]5(C)CC[C@H](OCc6cn(-c7ccc(C(=O)c8ccccc8)cc7)nn6)C(C)(C)[C@@H]5CC[C@]43C)[C@@H]12 : 43
C=C(C)[C@@H]1CC[C@]2(C(=O)O)CC[C@]3(C)[C@H](CC[C@@H]4[C@@]5(C)CC[C@H](OCc6cn(-c7cccc(CO)c7)nn6)C(C)(C)[C@@H]5CC[C@]43C)[C@@H]12 : 11
C=C(C)[C@@H]1CC[C@]2(C(=O)O)CC[C@]3(C)[C@H](CC[C@@H]4[C@@]5(C)CC[C@H](OCc6cn(-c7ccc([N+](=O)[O-])cc7)nn6)C(C)(C)[C@@H]5CC[C@]43C)[C@@H]12 : 36
C=C(C)[C@@H]1CC[C@]2(C(=O)O)CC[C@]3(C)[C@H](CC[C@@H]4[C@@]5(C)CC[C@H](OCc6cn(-c7cc(C)cc(O)c7)nn6)C(C)(C)[C@@H]5CC[C@]43C)[C@@H]12 : 28
C=C(C)[C@@H]1CC[C@]2(C(=O)O)CC[C@]3(C)[C@H](CC[C@@H]4[C@@]5(C)CC[C@H](OCc6cn(C7O[C@H](COC(C)=O)[C@H](OC(C)=O)[C@H](OC(C)=O)[C@H]7OC(C)=O)nn6)C(C)(C)[C@@H]5CC[C@]43C)[C@@H]12 (some centres undefined) : 39
C=C(C)[C@@H]1CC[C@]2(C(=O)O)CC[C@]3(C)[C@H](CC[C@@H]4[C@@]5(C)CC[C@H](OCc6cn(-c7ccccc7C#N)nn6)C(C)(C)[C@@H]5CC[C@]43C)[C@@H]12 : 40
C=C(C)[C@@H]1CC[C@]2(C(=O)O)CC[C@]3(C)[C@H](CC[C@@H]4[C@@]5(C)CC[C@H](OCc6cn(C7O[C@H](COC(C)=O)[C@@H](OC(C)=O)[C@H](OC(C)=O)[C@H]7OC(C)=O)nn6)C(C)(C)[C@@H]5CC[C@]43C)[C@@H]12 (some centres undefined) : 39
C=C(C)[C@@H]1CC[C@]2(C(=O)O)CC[C@]3(C)[C@H](CC[C@@H]4[C@@]5(C)CC[C@H](OCc6cn(-c7ccc(Cl)cc7)nn6)C(C)(C)[C@@H]5CC[C@]43C)[C@@H]12 : 46

Need inhibition of growth at 10 µM of C=C(C)[C@@H]1CC[C@]2(C(=O)O)CC[C@]3(C)[C@H](CC[C@@H]4[C@@]5(C)CC[C@H](OCc6cn(-c7cccc(OC)c7)nn6)C(C)(C)[C@@H]5CC[C@]43C)[C@@H]12 , thanks.
23

====

The reader will find reported IC50 values listed item by item below.
- Test system: THP-1
- method: Cytotoxicity against human THP1 cells after 48 hrs by SRB assay
- Format: functional, cell-based
- conditionContext: THP-1, 48 h
Give just the number in µM; leave the unit off.

C=C(C)[C@@H]1CC[C@]2(C(=O)O)CC[C@]3(C)[C@H](CC[C@@H]4[C@@]5(C)CC[C@H](OCc6cn(-c7ccc(OC)cc7)nn6)C(C)(C)[C@@H]5CC[C@]43C)[C@@H]12 : 10
C=C(C)[C@@H]1CC[C@]2(C(=O)O)CC[C@]3(C)[C@H](CC[C@@H]4[C@@]5(C)CC[C@H](OCc6cn(-c7ccc8c(c7)OCO8)nn6)C(C)(C)[C@@H]5CC[C@]43C)[C@@H]12 : 34

Need IC50 of C=C(C)[C@@H]1CC[C@]2(C(=O)O)CC[C@]3(C)[C@H](CC[C@@H]4[C@@]5(C)CC[C@H](OCc6cn(-c7cc(C)cc(O)c7)nn6)C(C)(C)[C@@H]5CC[C@]43C)[C@@H]12 , thanks.
18

====

- Test system: SF-295
- method: Cytotoxicity against human SF295 cells at 30 uM after 48 hrs by SRB assay
- Type: functional
- conditionContext: SF-295, 48 h, read-out: GI
The reader will find reported inhibition of growth at 30 µM values listed item by item below.
Give just the number in %; leave the unit off.

C=C(C)[C@@H]1CC[C@]2(C(=O)O)CC[C@]3(C)[C@H](CC[C@@H]4[C@@]5(C)CC[C@H](OCc6cn(-c7cc(C)cc(O)c7)nn6)C(C)(C)[C@@H]5CC[C@]43C)[C@@H]12 : 75
C=C(C)[C@@H]1CC[C@]2(C(=O)O)CC[C@]3(C)[C@H](CC[C@@H]4[C@@]5(C)CC[C@H](OCc6cn(-c7cc(I)ccc7C)nn6)C(C)(C)[C@@H]5CC[C@]43C)[C@@H]12 : 20
C=C(C)[C@@H]1CC[C@]2(C(=O)O)CC[C@]3(C)[C@H](CC[C@@H]4[C@@]5(C)CC[C@H](OCc6cn(C7O[C@H](COC(C)=O)[C@@H](OC(C)=O)[C@H](OC(C)=O)[C@H]7OC(C)=O)nn6)C(C)(C)[C@@H]5CC[C@]43C)[C@@H]12 (some centres undefined) : 5

Need inhibition of growth at 30 µM of C=C(C)[C@@H]1CC[C@]2(C(=O)O)CC[C@]3(C)[C@H](CC[C@@H]4[C@@]5(C)CC[C@H](OCc6cn(-c7ccc(C(=O)c8ccccc8)cc7)nn6)C(C)(C)[C@@H]5CC[C@]43C)[C@@H]12 , thanks.
19

====

- Test system: PC-3
- method: Cytotoxicity against human PC3 cells at 30 uM after 48 hrs by SRB assay
- Type: functional
- conditionContext: PC-3, 48 h, read-out: GI
measuredAttribute: inhibition of growth at 30 µM (%)
Give just the number in %; leave the unit off.

Known inhibition of growth at 30 µM results, listed for orientation:
C=C(C)[C@@H]1CC[C@]2(C(=O)O)CC[C@]3(C)[C@H](CC[C@@H]4[C@@]5(C)CC[C@H](OCc6cn(-c7cccc(CO)c7)nn6)C(C)(C)[C@@H]5CC[C@]43C)[C@@H]12 : 29
C=C(C)[C@@H]1CC[C@]2(C(=O)O)CC[C@]3(C)[C@H](CC[C@@H]4[C@@]5(C)CC[C@H](OCc6cn(-c7cc(OC)c(OC)c(OC)c7)nn6)C(C)(C)[C@@H]5CC[C@]43C)[C@@H]12 : 30

Could you share what inhibition of growth at 30 µM was measured for C=C(C)[C@@H]1CC[C@]2(C(=O)O)CC[C@]3(C)[C@H](CC[C@@H]4[C@@]5(C)CC[C@H](O)C(C)(C)[C@@H]5CC[C@]43C)[C@@H]12 [BETULINIC ACID] , tested on PC-3?
29

====

The reader will find reported inhibition of growth at 10 µM values listed item by item below.
- Test system: PC-3
- method: Cytotoxicity against human PC3 cells at 10 uM after 48 hrs by SRB assay
- Format: functional
- conditionContext: PC-3, 48 h, read-out: GI

Known inhibition of growth at 10 µM results, listed for orientation:
C=C(C)[C@@H]1CC[C@]2(C(=O)O)CC[C@]3(C)[C@H](CC[C@@H]4[C@@]5(C)CC[C@H](OCc6cn(-c7ccccc7CO)nn6)C(C)(C)[C@@H]5CC[C@]43C)[C@@H]12 : 10%
C=C(C)[C@@H]1CC[C@]2(C(=O)O)CC[C@]3(C)[C@H](CC[C@@H]4[C@@]5(C)CC[C@H](OCc6cn(-c7ccc(C#N)cc7)nn6)C(C)(C)[C@@H]5CC[C@]43C)[C@@H]12 : 3%
C=C(C)[C@@H]1CC[C@]2(C(=O)O)CC[C@]3(C)[C@H](CC[C@@H]4[C@@]5(C)CC[C@H](OCc6cn(C7O[C@H](COC(C)=O)[C@@H](OC(C)=O)[C@H](OC(C)=O)[C@H]7OC(C)=O)nn6)C(C)(C)[C@@H]5CC[C@]43C)[C@@H]12 (some centres undefined) : 8%

Need inhibition of growth at 10 µM of C=C(C)[C@@H]1CC[C@]2(C(=O)O)CC[C@]3(C)[C@H](CC[C@@H]4[C@@]5(C)CC[C@H](OCc6cn(-c7ccc([N+](=O)[O-])cc7)nn6)C(C)(C)[C@@H]5CC[C@]43C)[C@@H]12 , thanks.
48%

Need inhibition of growth at 10 µM of C=C(C)[C@@H]1CC[C@]2(C(=O)O)CC[C@]3(C)[C@H](CC[C@@H]4[C@@]5(C)CC[C@H](OCc6cn(-c7cccc(I)c7)nn6)C(C)(C)[C@@H]5CC[C@]43C)[C@@H]12 , thanks.
8%

Need inhibition of growth at 10 µM of C=C(C)[C@@H]1CC[C@]2(C(=O)O)CC[C@]3(C)[C@H](CC[C@@H]4[C@@]5(C)CC[C@H](O)C(C)(C)[C@@H]5CC[C@]43C)[C@@H]12 [BETULINIC ACID] , thanks.
8%

Need inhibition of growth at 10 µM of C=C(C)[C@@H]1CC[C@]2(C(=O)O)CC[C@]3(C)[C@H](CC[C@@H]4[C@@]5(C)CC[C@H](OCc6cn(-c7ccccc7C#N)nn6)C(C)(C)[C@@H]5CC[C@]43C)[C@@H]12 , thanks.
34%

Need inhibition of growth at 10 µM of C=C(C)[C@@H]1CC[C@]2(C(=O)O)CC[C@]3(C)[C@H](CC[C@@H]4[C@@]5(C)CC[C@H](OCc6cn(-c7cc(OC)c(OC)c(OC)c7)nn6)C(C)(C)[C@@H]5CC[C@]43C)[C@@H]12 , thanks.
8%

Need inhibition of growth at 10 µM of C=C(C)[C@@H]1CC[C@]2(C(=O)O)CC[C@]3(C)[C@H](CC[C@@H]4[C@@]5(C)CC[C@H](OCc6cn(-c7ccc(Cl)cc7)nn6)C(C)(C)[C@@H]5CC[C@]43C)[C@@H]12 , thanks.
22%
